Every entry's value here was drawn from paper PMC7819943.

For each of the sequences below, state its binding signal.
# assayed-target: OsWRKY34 (Oryza sativa, UniProt Q0JBA9 1-250)
# Sequence (Q0JBA9 entry or part of it): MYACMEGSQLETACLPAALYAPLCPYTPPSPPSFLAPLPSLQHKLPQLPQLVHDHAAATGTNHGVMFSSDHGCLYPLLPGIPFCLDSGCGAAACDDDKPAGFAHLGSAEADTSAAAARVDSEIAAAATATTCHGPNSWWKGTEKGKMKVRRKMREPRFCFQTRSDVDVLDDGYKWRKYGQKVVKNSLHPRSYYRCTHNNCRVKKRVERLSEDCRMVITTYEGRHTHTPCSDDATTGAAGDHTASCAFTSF
# protocol-summary: protein-binding microarray (RPBM); PBS, 2% BSA, 51.3 ng/ul salmon testes DNA, 50 uM zinc acetate, 200 nM TF, 25 C, 1 h; high values mean tight binding
# study-conditions: protein: recombinant; tags: N-terminal polyhistidine and DsRed monomer fusion (pET32a); label: CyDye5-dUTP incorporated in the synthesized complementary strand; 3' TTTTT single-stranded linker to array surface; dsDNA, one strand shown
In all, about 68,000 sequences were measured (“fluorescence intensity (a.u.)”: median about 9,100, highest 2% from about 16,000 on). The list comes from a sample in which the highest values are over-represented; it also holds close analogues and randomly drawn sequences.

Field: binding signal (OsWRKY34 (Oryza sativa, UniProt Q0JBA9 1-250)). Entry: "ACCAACCAACCACTGCTCTCGCCGCGCCGTCCTCTTCATCCGGAGTCACCTAGTGCAG"
18200 fluorescence intensity (a.u.)

Recall the recorded binding signal for "CGTTTTCTTTTTTCTTCCTCGCTTTCTCTCTCTCTCTCTCCGGAGTCACCTAGTGCAG" with OsWRKY34 (Oryza sativa, UniProt Q0JBA9 1-250) and state it.
11600 fluorescence intensity (a.u.)

Given the entry "TAATGTATTCCGGCAAATGAATATGTTGTTTGACTTTTTTCGGAGTCACCTAGTGCAG" , what binding signal was observed with OsWRKY34 (Oryza sativa, UniProt Q0JBA9 1-250)?
10300 fluorescence intensity (a.u.)

Give OsWRKY34 (Oryza sativa, UniProt Q0JBA9 1-250) binding signal for "GATCTCATCCCGTCCCGTCATCTGCTTCCTCTCTCGGAACCGGAGTCACCTAGTGCAG"
16900 fluorescence intensity (a.u.)

Give OsWRKY34 (Oryza sativa, UniProt Q0JBA9 1-250) binding signal for "TCTGCTTCTTCATCCTCGTGCTCTGCTTCTCTCTTCTTCCCGGAGTCACCTAGTGCAG"
8980 fluorescence intensity (a.u.)
